# TARGET_OR_TEST_SYSTEM: T1, recombinant human TIGIT (human, UniProt Q495A1 22-141, limits assumed)
# T1 construct: recombinant human TIGIT used in Carterra SPR; also called hTIGIT
# T1 sequence (looked up): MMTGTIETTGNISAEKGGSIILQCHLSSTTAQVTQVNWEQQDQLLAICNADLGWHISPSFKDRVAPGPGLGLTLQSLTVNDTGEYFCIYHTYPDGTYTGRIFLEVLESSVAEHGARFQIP
# TEST_NAME: SPR Carterra, average
koff: recorded values
Give a bare numeral; the unit s⁻¹ is implied.

binder="TIGIT-SC187 (Fc fusion, VHH-Fc fusion in assay) VHH: EVQLVESGGGLVQPGGSLRLSCAASGFTFSPSWMGWFRQAPGKEREWVASVLRGGYTWYADSVKGRFTISADNSKNTAYLQMNSLKPEDTAVYYCTTDSLPGWGQGTLVTVSS" test_result=0.000586
binder="TIGIT-SC5 (Fc fusion, VHH-Fc fusion in assay) VHH: EVQLVESGGGLVQPGGSLRLSCAASGFAFGDSWMGWFRQAPGKEREWVASVLRGGYTWYADSVKGRFTISADNSKNTAYLQMNSLKPEDTAVYYCARESEGWFDPWGQGTLVTVSS" test_result=0.00216
binder="TIGIT-SC32 (Fc fusion, VHH-Fc fusion in assay) VHH: EVQLVESGGGLVQPGGSLRLSCAASGFAFGDSWMGWFRQAPGKERELVAAIDWSGGSALYADSVKGRFTISADNSKNTALQMNSLKPEDTAVYYCAKVHSDFRAGWDVWGQGTLVTVSS" test_result=0.00243
binder="TIGIT-SC126 (Fc fusion, VHH-Fc fusion in assay) VHH: EVQLVESGGGLVQPGGSLRLSCAASGSIFSGNVMGWFRQAPGKERELVAAISNSASSTVYADSVKGRFTISADNSKNTAYLQMNSLKPEDTAVYYCARDWNLFDYWGQGTLVTVSS" test_result=0.013
binder="TIGIT-SC60 (Fc fusion, VHH-Fc fusion in assay) VHH: EVQLVESGGGLVQPGGSLRLSCAASGFTFSPSWMGWFRQAPGKEREWVASVLRGGYTWYADSVKGRFTISADNSKNTAYLQMNSLKPEDTAVYYCARDDLDYWGQGTLVTVSS" test_result=0.00184
binder="TIGIT-SC165 (Fc fusion, VHH-Fc fusion in assay) VHH: EVQLVESGGGLVQPGGSLRLSCAASGNTFSGGFMGWFRQAPGKEREWVASVLRGGYTWYADSVKGRFTISADNSKNTAYLQMNSLKPEDTAVYYCTTEGSGWRNWGQGTLVTVSS" test_result=0.00484
binder="TIGIT-SC83 (Fc fusion, VHH-Fc fusion in assay) VHH: EVQLVESGGGLVQPGGSLRLSCAASGRTFSDDAMGWFRQAPGKEREFVAAISRSGGNTYYADSVKGRFTISADNSKNTAYLQMNSLKPEDTAVYYCAKWFYYGSGLYTLDVWGQGTLVTVSS" test_result=0.00378
binder="TIGIT-SC21 (Fc fusion, VHH-Fc fusion in assay) VHH: EVQLVESGGGLVQPGGSLRLSCAASGNTFSGGFMGWFRQAPGKEREWVASVLRGGYTWYADSVKGRFTISADNSKNTAYLQMNSLKPEDTAVYYCARGGAGSDWFGPWGQGTLVTVSS" test_result=0.000578

In the following, a different binder is considered.
Request: Returns the measured koff for the input binder. Input: TIGIT-SC192 (Fc fusion, VHH-Fc fusion in assay) VHH: EVQLVESGGGLVQPGGSLRLSCAASGFTFSVYWMGWFRQAPGKEREFVAAISRSGTLKEYADSVKGRFTISADNSKNTAYLQMNSLKPEDTAVYYCARGSGWPKIHFDYWGQGTLVTVSS
Result: 0.0715
